Values compiled from the Human Domainome abundance scans (Beltran et al. 2025).

B1: DNA topoisomerase 3-alpha, residues 812 to 851; numbered along this chain, Q13472 (parent)
chain: TCNCGQEAVLLTVRKEGPNRGRQFFKCNGGSCNFFLWADS

Variants of: B1
experimentSummary: abundance fitness (aPCA) (normalised: wild type 0, dead -1); higher = more abundant; growth selection in yeast, the domain comes from the species named
measurementContext: Homo sapiens
Binning of abundance fitness into classes: low band (below -0.5), middle band (-0.5 to below -0.1), high band (-0.1 or more)

1) F34Q	middle band
2) A8L	middle band
3) K15G	high band
4) K26R	high band
5) W37P	middle band
6) G17R	low band
7) T12V	middle band
8) F34L	low band
9) K15Y	middle band
10) N28R	high band
11) W37K	middle band
12) L36K	high band
